# System: primary human hepatocyte (PHH)
# assay details: PHH natural infection assay, cytotoxicity (Cell Counting Kit-8)
# Assay type: cell-based
# test parameters: HBV-infected primary human hepatocytes, CCK8, end of treatment
CC50 values by entry

Worked examples follow.
compound | CC50
N=S(=O)(c1ccc(C(=O)NC2CC3(C2)CC(c2nc4cc(Cl)cnc4o2)C3)o1)C1CC1 (single isomer, unassigned) [Example 64-b] | > 10 µM
CS(=N)(=O)c1ccc(C(=O)NC2CC3(C2)CC(c2nc4cc(Cl)ccc4o2)C3)o1 (single isomer, unassigned) [Example 52-b] | > 100 µM
N=S(=O)(CC1CC1)c1ccc(C(=O)NC2CC3(C2)CC(c2nc4cc(Cl)ccc4o2)C3)o1 (single isomer, unassigned) [Example 54-d] | > 10 µM
N=S(=O)(CC1CC1)c1ccc(C(=O)NC2CC3(C2)CC(c2nc4cc(Cl)ccc4o2)C3)o1 (single isomer, unassigned) [Example 54-b] | > 100 µM
O=C(NC1CC2(C1)CC(c1nc3cc(Cl)ccc3o1)C2)c1ccc([S+]([O-])CC2CC2)o1 (single isomer, unassigned) [Example 19-d] | > 10 µM

Attention now turns to another entry.
Query block: Can you look up the measured CC50 of O=C(NC1CC2(C1)CC(c1nc3cc(Cl)ccc3o1)C2)c1ccc([S+]([O-])CC2CC2)o1 (single isomer, unassigned) [Example 19-c] for me?
Result block: > 10 µM
